Consider the following molecules and their measured melting point readings.

Some molecules with known melting point results, for comparison:
{"columns": ["structure string", "melting point"],
 "data": [
  ["Cc1ccc(Cn2cnc3nn(C(C)C)cc3c2=O)cc1", "145 to 147 °C"],
  ["O=c1c2cn(Cc3ccccc3Cl)nc2ncn1Cc1ccccc1Cl", "167 to 168 °C"],
  ["O=c1c2cn(Cc3ccccc3)nc2ncn1Cc1c(F)cccc1Cl", "176 to 177 °C"]
]}

Return melting point for the following molecule: O=c1c2c[nH]nc2ncn1Cc1ccc(F)cc1
260 to 261 °C

Return melting point for the following molecule: Cn1cc2c(=O)n(Cc3c(F)cccc3F)cnc2n1
226 to 228 °C

Return melting point for the following molecule: Cn1cc2c(=O)n(Cc3cccc(Cl)c3)cnc2n1
169 to 170 °C

Return melting point for the following molecule: Cn1cc2c(=O)n(Cc3ccc(Cl)cc3Cl)cnc2n1
218 to 219 °C

Return melting point for the following molecule: O=c1c2cn(-c3ccccc3)nc2ncn1Cc1c(F)cccc1Cl
195 to 197 °C

Return melting point for the following molecule: Cn1cc2c(=O)n(Cc3ccccn3)cnc2n1
203 to 205 °C

Return melting point for the following molecule: Cc1nc2nn(C)cc2c(=O)n1Cc1ccccc1C(F)(F)F
192 to 193 °C
